Tested on: MS2 coat protein
Experiment: apparent KD of MS2 coat protein; designed switch direction (-1 OFF switch, 1 ON switch): 1; higher = weaker reporter binding
Cond: input ligand: none
Class Satisfied: apparent KD of MS2 coat protein at least 90 nM. Class Not satisfied: apparent KD of MS2 coat protein below 90 nM.

Monomer Sequence	Assay Target	Assigned Label
UUGUUUUGUAAUUAACAUGAGGAUCACCCAUGUCUUGGCACAGAGGAUAUACAUGUUUGUUUGUAGUAGAAGGCUGUUUAUUGU [JR_SSNG3_Sub096] (Eterna round: R96, puzzle: Same State NG 3)	MS2 coat protein	Satisfied
GCUCGAUGAGCUGUCUACAUGAGGAUCACCCAUGUAGAUGGGCAGGAUAUUUACGUGCUUUGUGUAGAGAAGGGCCCAUCGAGC [SameState NG3 #77] (Eterna round: R96, puzzle: Same State NG 3)	MS2 coat protein	Satisfied

Input: Check this sequence for apparent KD of MS2 coat protein at or above 90 nM: GCUCGAUGAAUGUCCUACAUGAGGAUCACCCAUGUACGUGGGCAGGAUAUUUACAUGCAGAGUGUAGAGAAGGGCCCAUCGAGC [SameState NG3 #62] (Eterna round: R96, puzzle: Same State NG 3)
Output: Not satisfied

Input: # check: apparent KD of MS2 coat protein of UAGUGCAUUAGAGGAUAUUCUUACGGAAACGGUAAGACAUGAGGAUCACCCAUGUUGUCACAUGGGAAGAAGGCUGAUGUGCUA [Omei SS(NG)2 Bv5] (Eterna round: R96, puzzle: Same State NG 2) is greater than or equal to 90 nM
Output: Satisfied

Input: Answer whether apparent KD of MS2 coat protein of GCGAGCGUACUUGCUACAUGAGGAUCACCCAUGUUUUAUGGACAGGAUAUGGUACCGUUUCGGUACCAGAAGGGUUCACAUGUA [JL SSNG3 3.83] (Eterna round: R96, puzzle: Same State NG 3) is greater than or equal to 90 nM.
Output: Satisfied

Input: Determine whether measured apparent KD of MS2 coat protein meets or exceeds 90 nM for AUUUUUAAUGCAGGAUAUGAUUAACAUGAGGAUCACCCAUGUGGUGUUGUGAGUAAGGAGAGUGAUCAGAAGGGCAUUUUUUUC [JMF's solution 91] (Eterna round: R96, puzzle: Same State NG 2)
Output: Satisfied

Input: For this sequence, is measured apparent KD of MS2 coat protein 90 nM or higher? AACAGUCGGCGAGGAUAUGGACAUACGGACUAACCCGUAUGGCUCACAUGAGGAUCACCCAUGUUCUAGAAGGCGCCACUGAAA [Raridi] (Eterna round: R96, puzzle: Same State NG 2)
Output: Not satisfied

Input: Given the entry GAGUGGUUGGGAGGAUAUGCAUUGUUAUUAAAUGCAGAAGGUUUUAACAUGAGGAUCACCCAUGUAGGACUAUUCCUGUGUAUC [Parity 69 - Jieux - Same State NG 1] (Eterna round: R96, puzzle: Same State NG 1) , answer whether its apparent KD of MS2 coat protein meets or surpasses 90 nM.
Output: Not satisfied

Input: Has AUAGUGUACGCAGGAUAUCGAUGAGGAACAUGAGGAUCACCCAUGUUGUGAGGAUCACCCAUGUAUGAGAAGGGCGACCCAUGU [Same State NG2 S1] (Eterna round: R96, puzzle: Same State NG 2) a recorded apparent KD of MS2 coat protein greater than or equal to 90 nM?
Output: Not satisfied

Input: Reported apparent KD of MS2 coat protein at or above 90 nM? GGUGCAAUAAACGCCUACAUGAGGAUCACCCAUGUAUGUAGGCAGGAUAUCGUAUGCAAAGCAUACGAGAAGGGCUGUAGUACC [Mat - Same State NG 3 - JL Mod - D42] (Eterna round: R96, puzzle: Same State NG 3)
Output: Satisfied

Input: Determine whether measured apparent KD of MS2 coat protein meets or exceeds 90 nM for AUUAGUUAUGCAGGAUAUGAUUAACAUGAGGAUCACCCAUGUGGUGUUGUGAGUAAGGAGAGUGAUCAGAAGGGCAUUUUUUUU [JMF's solution 67] (Eterna round: R96, puzzle: Same State NG 2)
Output: Satisfied
